- Tested on: XF498
- procedure_details: NCI tumour cell line growth inhibition, 48 h
Active and inactive are the calls of the source. No stated cut-off is given here; in the data, active = GI50 up to about 1.1 µM and inactive = higher.
Could you please pick one outcome from this set? active, inactive

Sample answers from the record:
CCC(O)(c1ccc(OC)cc1)C(c1ccc(OCc2ccccc2)cc1)c1ccc(OCc2ccccc2)cc1 (stereo not given) :: inactive
CC(SC1=CC(=O)c2c(Cl)ccc(O)c2C1=O)C(=O)O (stereo not given) :: inactive
COC(=O)Nc1nc2cc(C(=O)c3cccs3)ccc2[nH]1 :: active
Cc1ccc(N(C(=O)CC(=O)NN)C(=O)c2ccccc2Cl)cc1 :: inactive
CCc1c(OC(C)=O)c2c(NC3OCC(OC(C)=O)C(OC(C)=O)C3OC(C)=O)nc(SC)nc2oc1=O (stereo not given) :: inactive
COC(=O)C(Cc1nc2ccc(Cl)cc2nc1O)C(=O)C(=O)Nc1ccccc1[N+](=O)[O-] (stereo not given) :: inactive
O=C1C=C2S[C@H]3C[C@]2(C=C1Br)C1=C(N3)C(=O)c2[nH]cc3c2C1=NCC3 [(+)-DISCORHABDIN B] :: inactive
O=C(O)CC12C3C4C5C3C1C5C42 (stereo not given) :: inactive

Which outcome was entered for the compound C=C1CN2CCc3c([nH]c4ccccc34)C2CC1CC(=O)N(C)C (stereo not given) in this test? inactive

Also need O=C(CC1C(=O)Nc2ccccc2S1(=O)=O)Nc1ccc(Cl)cc1 (stereo not given) , thanks. inactive

Cited source: ChEMBL document CHEMBL1201862
